run description: NCI Yeast Anticancer Drug Screen. Data for the mec2-1 strain (AID 157)
applied conditions: S. cerevisiae mec2-1 strain, at 50.0 µM (retest, dose inferred, filed as 5.0)
This is part of a sample that, as a whole, favours compounds with a hit. Of some 79,000 tested, about 15% had one in any assay. Calls of active or inactive are those of the source. Rule as the data show it: active = growth inhibition above about 70%; inactive = the rest.
Labels: 1 = active, -1 = inactive

compound=CC(C)(C)c1ccc(Sc2ncnc3ccccc23)cc1 assigned_category=1
compound="CCCCCCCN(CCCCCCC)CC(O)Cc1cc2c(c3ccccc13)CCCC2 (stereo unspecified)" assigned_category=1
compound="O=C1C(CN2CCCC2)C(O)=C(c2ccccc2)N1c1ccccc1 (stereo unspecified)" assigned_category=-1
compound="C=C1CCC[C@@H]2[C@@](C)(CC3=CC(=O)C=CC3=O)C(C)CC[C@]12C (stereo partly specified)" assigned_category=1
compound=CCCCN1C(=O)C[C@H]2[C@@H]3CCc4cc(OCCN5CCCC5)ccc4[C@H]3CC[C@]2(C)C1=O assigned_category=-1
compound=COc1ccc(COCCOCc2nc(C#N)c(N)o2)cc1 assigned_category=-1
compound="N#CC(c1ccc(Cl)cc1)c1ccc([N+](=O)[O-])cc1 (stereo unspecified)" assigned_category=-1
compound=Nc1c(C(=O)O)cccc1[N+](=O)[O-] assigned_category=-1
compound=CCN(CC)c1cccc(OC(=O)Nc2cccc(C(F)(F)F)c2)c1 assigned_category=1
compound=CCOC(=O)C(=O)Nc1nc2c(s1)C(=O)c1ccccc1C2=O assigned_category=1
compound=CCN(CC)CCOc1c(I)cc(I)cc1I assigned_category=1

###

run description: NCI Yeast Anticancer Drug Screen. Data for the sgs1 mgt1 strain (AID 161);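 also: 0% = growth of cultures given vehicle only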
applied conditions: S. cerevisiae sgs1 mgt1 strain, at 50.0 µM (retest, dose inferred, filed as 5.0), active compounds read high
This is part of a sample that, as a whole, favours compounds with a hit. Of some 79,000 tested, about 15% had one in any assay.
Measured growth inhibition of individual entries
metric name: growth inhibition (%)

compound="CCCCCCCC/C=C\\CCCCCCCC(=O)O (tested in a mixture with another compound)" reported_value=98
compound="Cc1ccc(C(CN(C)C)C(=O)c2ccccc2)cc1C (stereo unspecified)" reported_value=93
compound="COC(=O)C1(Cc2ccc(C)cc2)Cc2c(C)cccc2C1=O (stereo unspecified)" reported_value=45
compound=CC(C)SC(=S)S(=O)(=O)c1ccc(Cl)cc1 reported_value=74
compound=Cc1ccc(/[N+]([O-])=C/c2ccccc2)cc1 reported_value=-2
compound="CC1=C(C(=O)OCCc2ccc([N+](=O)[O-])cc2)C(c2ccccc2[N+](=O)[O-])C(C(=O)OC(C)C)=C(C)N1 (stereo unspecified)" reported_value=87
compound=C/C(=N\NC(=S)N1CCCCCC1)c1cccc2cccnc12 reported_value=30
compound=CC(=O)N/N=C/c1ccc([N+](=O)[O-])o1 reported_value=50
compound=O=C(O)CCC(=O)NNc1ccccc1 reported_value=58
compound=COc1ccccc1/C=C(\NC(=O)c1ccccc1)c1nc2ccccc2[nH]1 reported_value=99
compound=C1=C(c2c(-c3ccccc3)[nH]c3ccccc23)Cc2ccccc21 reported_value=54

###

run description: NCI Yeast Anticancer Drug Screen. Data for the bub3 strain (AID 167)
applied conditions: S. cerevisiae bub3 mutant strain, at 5.0 µM (retest, dose inferred, filed as 0.5), active compounds read high
The panel holds about 79,000 compounds, 15% with a hit somewhere; the sample as a whole holds those more often.
metric name: growth inhibition (%)

compound=NCCCN1c2ccccc2Sc2ccc(Cl)cc21 reported_value=-1
compound=O=C(Oc1cc(Cl)c(Cl)cc1Cl)c1ccco1 reported_value=30
compound=N#CC1(C#N)C(C#N)(C#N)C12CCC2 reported_value=7
compound=COC(=O)c1ccccc1NC(=O)C(=O)Cc1nc2c3c(ccc2[nH]c1=O)C(=O)c1ccccc1C3=O reported_value=6
compound="Cc1ccc(C(=O)CC(N)C(=O)O)cc1 (stereo unspecified)" reported_value=2
compound=CC(C)(C)c1ccc(Sc2ncnc3ccccc23)cc1 reported_value=3
compound="COc1ccc(C2c3cc4c(cc3OC(NCCO)C2C)OCO4)cc1 (stereo unspecified)" reported_value=-24
compound=COC(=O)C(=[N+]=[N-])C(=O)c1ccc(Cl)cc1 reported_value=-14
compound=COc1ccc(/C=C2\C(=O)N(C)C(=O)c3cc(OC)c(OC)cc32)cc1OC reported_value=5
compound="CC1(C)CC(O)C(O)C1 (stereo unspecified)" reported_value=2
compound="Cc1ccc(C)c(C2CCCCC2O)c1 (stereo unspecified)" reported_value=-13
compound=CCOC(=O)C(CCOC)C(=O)OCC reported_value=1
compound=O=C(O)Cc1c(-c2noc(-c3ccccc3)c2CC(=O)O)noc1-c1ccccc1 reported_value=-7
compound=CC(=O)Oc1c([N+](=O)[O-])cc(-c2ccccc2)cc1[N+](=O)[O-] reported_value=21
compound="COC(=O)C1(Cc2ccc(C)cc2)Cc2c(C)cccc2C1=O (stereo unspecified)" reported_value=17
compound=CCCCCCCCCCNC(=O)CBr reported_value=14
compound=C/C(=N\NC(=S)N1CCCCCC1)c1cccc2cccnc12 reported_value=-4
compound=Cc1ccc(NC(=S)SCc2ccco2)cc1Cl reported_value=-3
compound="CC1=NC(c2ccccc2)(C2(c3ccccc3)C(c3ccccc3)=C2c2ccccc2)C(=O)O1 (stereo unspecified)" reported_value=11
compound=CCCC(c1ccc(O)cc1)c1ccc(O)cc1 reported_value=1
compound="CC1(C)OC2C(COC(c3ccccc3)(c3ccccc3)c3ccccc3)OC(n3ccc(=O)[nH]c3=O)C2O1 (stereo unspecified)" reported_value=42
compound=COc1ccc(COCCOCc2nc(C#N)c(N)o2)cc1 reported_value=22
compound=Nc1ccc(CSc2ccc(Cl)cc2)cc1Cl reported_value=32
compound=COc1ccccc1C1(c2ccccc2OC)OC(=O)c2ccccc21 reported_value=-2
compound=CCN(CC)CCOc1c(I)cc(I)cc1I reported_value=6
compound="CC1C(C(=O)O)CC([N+](=O)[O-])C(Cl)C1[N+](=O)[O-] (stereo unspecified)" reported_value=11
compound=O=[N+]([O-])c1ccc(/C(=C\c2ccccc2)Cn2ccnc2)cc1 reported_value=78
compound="CCCCC(Oc1cc(C(C)(C)C)c(O)c(C(C)(C)C)c1)C(=O)O (stereo unspecified)" reported_value=3
compound=Cc1cc(O)ccc1SC#N reported_value=-11
compound=CC(C)(C)c1ccc(O)c(CN(Cc2c(O)ccc3ccccc23)C2CCCCC2)c1 reported_value=-3
compound=CCN1C2=NCCN2S(=O)(=O)c2ccccc21 reported_value=13
compound=C[C@]12CCC(=O)C=C1CC[C@@H]1[C@@H]2[C@@H](O)C[C@@]2(C)[C@H]1CC[C@]2(O)C(=O)COC(=O)CCC1CCCC1 reported_value=51
compound="CC(C)(C)c1ccc2c(c1)C(O)(c1ccccc1)C1OC1(C(C)(C)C)C2=O (stereo unspecified)" reported_value=-3
compound=CNC(=O)c1cccc2c(Nc3ccc(NS(C)(=O)=O)cc3OC)c3cccc(C)c3nc12 reported_value=19
compound=COc1ccc(/C=C(\C(=O)c2ccc(O)cc2)c2ccccc2)cc1OC reported_value=-4
compound="CC(=O)N1C=C2CCC3c4ccccc4NC3C2CC1 (stereo unspecified)" reported_value=-11
compound=CCC[C@H]1[C@H](CCC)[C@@]2(OC(=O)C3=C2CCC=C3)[C@]12OC(=O)C1=C2CCC=C1 reported_value=2
compound=O=[N+]([O-])c1ccc(-c2nc3c(o2)CCC3)cc1 reported_value=-72
compound=CCc1c(O)c(O)c(C(C)=O)c2c(O)c(-c3c(C)cc4c(CC)c(O)c(O)c(C(C)=O)c4c3O)c(C)cc12 reported_value=11
compound="CC(=O)Nc1nc(Cl)c2ncn(C3CC(OC(=O)c4ccc(C)cc4)C(COC(=O)c4ccc(C)cc4)O3)c2n1 (stereo unspecified)" reported_value=0
compound=O=C1CCCC/C1=C/c1ccc(Cl)cc1 reported_value=-64
compound="CCOC(=O)C(=O)CC1=Nc2ccccc2SC(c2cccc(C)c2)C1 (stereo unspecified)" reported_value=12
compound=c1ccc2c(c1)C[N+]1(CCCCCCC1)C2 reported_value=-3
compound=O=C1c2ccccc2C(=O)c2c1ccc(O)c2O reported_value=80
compound="COC(=O)C12OCC34C(CC5C(C)C6=CC(=O)OC6=CC5(C)C3C(O)C1O)OC(=O)C(OC(C)=O)C24 (stereo unspecified)" reported_value=68
compound=O=C(Nc1ccccc1)C(F)(F)C(F)(F)C(F)(F)F reported_value=15
